Task for the reader: assign each of the following molecules its reported melting point.

Molecule	Result
COc1cc(N2C(=O)C(Cl)C2c2ccc(OCc3ccccc3)cc2)cc(OC)c1OC (stereo not shown) [Compound 10h]	96 to 98 °C
COc1cc(N2C(=O)C(Cl)(Cl)C2c2ccc([N+](=O)[O-])cc2)cc(OC)c1OC (stereo not shown) [Compound 11d]	116 to 118 °C
COc1cc(N2C(=O)C(Cl)(Cl)C2c2cccc3ccccc23)cc(OC)c1OC (stereo not shown) [Compound 11j]	146 to 148 °C
COc1ccc(N2C(=O)C(Cl)(Cl)C2c2cc(OC)c(OC)c(OC)c2)cc1 (stereo not shown) [Compound 13a]	64 to 66 °C
COc1cc(N2C(=O)C(Cl)(Cl)C2c2ccc(Br)cc2)cc(OC)c1OC (stereo not shown) [Compound 11c]	150 to 152 °C

Respectfully, I request melting point for each entry included below.
1. CCOc1ccc(N2C(=O)C(Cl)C2c2cc(OC)c(OC)c(OC)c2)cc1 (stereo not shown) [Compound 12b]
2. COc1cc(C2N(c3ccc(SC)cc3)C(=O)C2(Cl)Cl)cc(OC)c1OC (stereo not shown) [Compound 13c]
3. CCOc1ccc(N2C(=O)C(Cl)(Cl)C2c2cc(OC)c(OC)c(OC)c2)cc1 (stereo not shown) [Compound 13b]
4. COc1cc(N2C(=O)C(Cl)(Cl)C2c2ccc(Oc3ccccc3)cc2)cc(OC)c1OC (stereo not shown) [Compound 11g]
5. COc1cc(N2C(=O)C(Cl)(Cl)C2c2ccccc2)cc(OC)c1OC (stereo not shown) [Compound 11a]

113 to 115 °C
117 to 119 °C
133 to 134 °C
82 to 84 °C
80 to 81 °C

====

Tested on: MDA-MB-231 cells
Experiment: Cell viability assay, antiproliferative activity
Type: cell-based
Conditions: Homo sapiens, MDA-MB-231, 72 h, read-out: Antiproliferative Activity IC50 MDA-MB-231, 72 h
Experimental: Selected β-lactam compounds were next evaluated in the triple negative cell line MDA-MB-231 (Table 4). […] Cell numbers were monitored using a haemocytometer. […] . […] Solubilisation was commenced by the addition of DMSO ([…]) and the cells were maintained at 20 °C in the dark for 20 min before reading the absorbance to ensure complete colour diffusion. […]
Measure: pIC50
One number for each entry, as −log10 of the molar value.

Item COc1ccc(C2N(c3cc(OC)c(OC)c(OC)c3)C(=O)C2(Cl)Cl)cc1O (stereo not shown) [Compound 11n] was tested on MDA-MB-231 cells; the reported pIC50 is 7.50

====

Assay: NCI 60 cell line screen, full panel
Format: cell-based
Conditions: human, NCI 60 cancer cell line panel (mean over the panel), NCI 60 panel mean; read-out: LC50 (mean over NCI 60 panel)
Give LC50 for every item shown.
Answers are plain numbers, in µM.

Molecule	Readout Number
CCSc1ccc(C2C(Br)C(=O)N2c2cc(OC)c(OC)c(OC)c2)cc1 (centres unmarked) [Compound 16d]	83.2

For record COc1ccc([C@H]2[C@H](Cl)C(=O)N2c2cc(OC)c(OC)c(OC)c2)cc1 (relative stereo) [Compound 10e trans] the listed LC50 is 81.3

====

Assay: NCI 60 cell line screen, full panel
Assay type: cell-based
Settings: human, NCI 60 cancer cell line panel, individual cell lines, all but one cell line for 10e; all but four cell lines for 11n; read-out: LC50 in individual cell lines
Measure: LC50

The recorded LC50 for entry COc1ccc([C@H]2[C@H](Cl)C(=O)N2c2cc(OC)c(OC)c(OC)c2)cc1 (relative stereo) [Compound 10e trans] equals > 100 µM

====

Assay: HPLC stability study in phosphate buffers
Format: physicochemical
Conditions: phosphate buffer; buffer pH 9, 37°C
Measure: half-life at 0.03 mg/mL (h)
Give bare numbers, in h.

Reported half-life at 0.03 mg/mL of COc1ccc(C2C(Br)C(=O)N2c2cc(OC)c(OC)c(OC)c2)cc1 (stereo not shown) [Compound 16a] : 20

====

Tested on: NCI 60 cell line panel
Test: NCI 60 cell line screen, full panel
Assay type: cell-based
Details: NCI 60 panel mean; listed as 10e; read-out: LC50 (mean over NCI 60 panel)
Measure: LC50 (µM)
Answers are plain numbers, in µM.

COc1ccc([C@H]2[C@H](Cl)C(=O)N2c2cc(OC)c(OC)c(OC)c2)cc1 (relative stereo) [Compound 10e trans] yielded LC50 of 91.2

====

Experiment: HPLC stability study in phosphate buffers
Type: physicochemical
Conditions: phosphate buffer; buffer pH 7.4, 37°C
Measure: half-life at 0.03 mg/mL (h)
Numbers only, in h.

Entry COc1ccc(C2C(Br)C(=O)N2c2cc(OC)c(OC)c(OC)c2)cc1 (stereo not shown) [Compound 16a] ; half-life at 0.03 mg/mL = 22

====

Assay: NCI 60 cell line screen, full panel
Format: cell-based
Conditions: human, all but one cell line for 10e; all but four cell lines for 11n; read-out: LC50 in individual cell lines
Measure: LC50

GET /value?item= COc1ccc(C2N(c3cc(OC)c(OC)c(OC)c3)C(=O)C2(Cl)Cl)cc1O (stereo not shown) [Compound 11n] &field=LC50 returns > 100 µM
